# target: T1, human KLRB1 protein extracellular domain (ECD) (human, UniProt Q12918 67-225)
# T1 construct: range 67-225; The ELISA and SPR text says only 'human KLRB1 ECD'; also called human KLRB1 ECD; CD161
# T1 sequence (looked up): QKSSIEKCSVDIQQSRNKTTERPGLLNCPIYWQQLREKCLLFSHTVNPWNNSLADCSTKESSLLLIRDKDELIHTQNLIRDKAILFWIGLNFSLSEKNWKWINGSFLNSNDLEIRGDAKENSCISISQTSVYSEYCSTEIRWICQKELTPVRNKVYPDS
# experiment-summary: SPR, human KLRB1 ECD; format not stated
quantity-kind: Kd (nM)
# output: bare number, implied unit nM

Please review the following examples before continuing.
>>> observed_result("10A3D6C109Chum2.5 (antibody, V domains shown, Humanized variant of 10A3D6 made by CDR grafting) VH: QVQLVQSGAEVKKPGASVKVSCKASGYSFTGYTMNWVRQAPGQNLEWIGLINPNTGGTYYNQKFKDRVTLTVDTSISTAYMELSRLRSDDTAVYYCARLGDNYRGYFDCWGQGTTVTVSS VL: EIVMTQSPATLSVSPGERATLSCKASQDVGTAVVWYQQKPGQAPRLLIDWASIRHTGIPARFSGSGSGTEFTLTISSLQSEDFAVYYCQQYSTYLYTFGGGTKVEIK")
0.11
>>> observed_result("10A3D6C109Chum2.2 (antibody, V domains shown, Humanized variant of 10A3D6 made by CDR grafting) VH: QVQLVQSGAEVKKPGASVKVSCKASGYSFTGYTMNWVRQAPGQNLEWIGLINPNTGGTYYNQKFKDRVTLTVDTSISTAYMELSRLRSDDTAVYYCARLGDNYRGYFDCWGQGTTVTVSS VL: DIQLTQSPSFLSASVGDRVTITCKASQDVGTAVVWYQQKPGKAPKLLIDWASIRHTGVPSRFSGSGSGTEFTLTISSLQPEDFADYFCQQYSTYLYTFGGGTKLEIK")
0.106
>>> observed_result("10A3D6C109Chum3.3 (antibody, V domains shown, Humanized variant of 10A3D6 made by CDR grafting) VH: QVQLVQSGAEVKKPGASVKVSCKASGYSFTGYTMNWVRQAHGQNLEWIGLINPNTGGTYYNQKFKDRVTLTVDTSISTAYMELSRLRSDDTAVYYCARLGDNYRGYFDCWGQGTTVTVSS VL: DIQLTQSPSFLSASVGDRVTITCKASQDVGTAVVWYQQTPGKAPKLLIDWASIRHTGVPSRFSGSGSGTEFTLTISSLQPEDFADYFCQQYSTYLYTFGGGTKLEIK")
0.109
>>> observed_result("10A3D6C109F-chimeric (antibody, human IgG1, V domains shown, Chimeric mutated variant; the name hIgG1k indicates human IgG1 kappa constant regions; also called 10A3D6C109FhIgG1k) VH: EVQLQQSGPELVKPGASMKISCKASGYSFTGYTMNWVKQSHGKNLEWIGLINPNTGGTYYNQKFKDKATLTVDKSSSTAYMELLSLTSEDSAVYYCARLGDNYRGYFDFWGQGTTLTVSS VL: DIVMTQSHKFMSTSVGDRVNITCKASQDVGTAVVWYQQTPGQSPKVLIDWASIRHTGVPDRFTGSGSGTDFTLTISSVQSEDLADYFCQQYSTYLYTFGGGTKLEIK")
0.0627
>>> observed_result("10A3D6C109Chum4.5 (antibody, V domains shown, Humanized variant of 10A3D6 made by CDR grafting) VH: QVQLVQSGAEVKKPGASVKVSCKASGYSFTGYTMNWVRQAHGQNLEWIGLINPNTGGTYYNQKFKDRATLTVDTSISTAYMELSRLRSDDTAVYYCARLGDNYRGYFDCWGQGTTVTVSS VL: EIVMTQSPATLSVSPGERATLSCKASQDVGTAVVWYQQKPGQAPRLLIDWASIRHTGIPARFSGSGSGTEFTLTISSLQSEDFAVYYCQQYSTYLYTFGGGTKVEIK")
0.127

Pending binder:
Quote Kd reported for 10A3D6C109Chum3.2 (antibody, V domains shown, Humanized variant of 10A3D6 made by CDR grafting) VH: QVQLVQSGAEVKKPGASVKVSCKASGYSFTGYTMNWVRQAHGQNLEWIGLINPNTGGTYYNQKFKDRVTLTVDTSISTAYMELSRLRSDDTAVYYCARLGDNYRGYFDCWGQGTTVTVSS VL: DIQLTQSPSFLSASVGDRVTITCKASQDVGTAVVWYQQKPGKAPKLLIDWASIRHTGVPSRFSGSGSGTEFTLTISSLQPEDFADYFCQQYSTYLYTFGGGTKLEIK please.
0.135
